Numbers sourced from patent US20050070480A1.

Would you kindly list Survival rate % for each of these compounds?
Test system: LPS-treated rats
Method Summary: Survival in a rat model for disseminated intravascular coagulation
Type: in vivo
Condition Description: rats, 30 mg/kg LPS i.v.; 1.5 mg/kg bolus + infusion; 8 hours
Non-standard residues stand in square brackets, D forms with d. Residues, ends and D or L forms follow the SMILES beside them. dNMeChg = CN[C@@H](C(=O)O)C1CCCCC1; Aze = O=C(O)[C@@H]1CCN1
Response body: numeric value in %, unit text excluded.

Quick check: Survival rate % of CN[C@@H](C(=O)N1CC[C@H]1C(=O)N[C@H](C=O)CCCNC(=N)N)C1CCCCC1 [Compound 4] (H-[dNMeChg]-[Aze]-Arg-aldehyde) ? 100

Same read-out for CN[C@H](Cc1ccccc1)C(=O)N1CCC[C@H]1C(=O)N[C@H](C=O)CCCN=C(N)N [C, D-MePhe-Pro-Arg-H, reference compound] ? 92

Try CCOC(=O)N[C@H](CC1CCCCCC1)C(=O)N1CCC[C@H]1C(=O)N[C@H](C=O)CCCNC(=N)N next. 100

Would you kindly repeat that for N=C(N)NCCC[C@@H](C=O)NC(=O)[C@@H]1CCCN1C(=O)[C@H](O)CC1CCCCCC1 ? 92

Now the same for CN[C@H](CC1CCCCCC1)C(=O)N1CCC[C@H]1C(=O)N[C@H](C=O)CCCNC(=N)N 100

---

Assay System: UniProtKB P00742
Sequence (P00742 235-488 limits assumed): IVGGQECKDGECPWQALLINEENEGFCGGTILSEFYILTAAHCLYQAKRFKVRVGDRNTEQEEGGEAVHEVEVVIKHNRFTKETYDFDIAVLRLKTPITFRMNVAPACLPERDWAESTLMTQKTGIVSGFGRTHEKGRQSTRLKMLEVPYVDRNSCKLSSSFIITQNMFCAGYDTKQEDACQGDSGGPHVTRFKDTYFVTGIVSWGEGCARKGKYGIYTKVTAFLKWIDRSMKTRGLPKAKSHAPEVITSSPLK
Sequence (P00742 41-179 limits assumed): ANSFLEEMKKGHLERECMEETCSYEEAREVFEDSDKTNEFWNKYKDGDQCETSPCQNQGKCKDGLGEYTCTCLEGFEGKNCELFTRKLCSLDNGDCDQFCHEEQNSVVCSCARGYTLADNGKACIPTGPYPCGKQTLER
Method Summary: Enzyme inhibition in platelet-rich plasma clots, chromogenic substrate Moc-D-Chg-Gly-Arg-pNA
Procedure: Tos-Gly-Pro-Arg-pNA (S1) for thrombin and Moc-D-Chg-Gly-Arg-pNA (S2) for factor Xa, as published (Bajusz, S. et al.: PCT Pub. No. WO97/46576) briefly. The assays were carried out at room temperature in glass tubes and 96-well microtiter plates. […] (c) Assessment of the enzyme inhibition in the clots. […] 150 μl portions of the reaction mixtures were placed in the wells of a microtiter plate and read at 405 nm (ELISA READER 800, Bio-Tek Instruments Inc. Winooski, Vt., USA). […]
Non-standard residues stand in square brackets, D forms with d. Residues, ends and D or L forms follow the SMILES beside them. dNMeChg = CN[C@@H](C(=O)O)C1CCCCC1; Aze = O=C(O)[C@@H]1CCN1
Property: IC50 (nM)
# output: bare number, implied unit nM

Returns the measured IC50 for the input compound. Input: CN[C@H](CC1CCCCCC1)C(=O)N1CCC[C@H]1C(=O)N[C@H](C=O)CCCNC(=N)N 102

What do we get for N=C(N)NCCC[C@@H](C=O)NC(=O)[C@@H]1CCCN1C(=O)[C@H](O)CC1CCCCCC1 ? 117

Input CN[C@H](Cc1ccccc1)C(=O)N1CCC[C@H]1C(=O)N[C@H](C=O)CCCN=C(N)N [C, D-MePhe-Pro-Arg-H, reference compound] 1000

Quick one: CN[C@@H](C(=O)N1CC[C@H]1C(=O)N[C@H](C=O)CCCNC(=N)N)C1CCCCC1 [Compound 4] (H-[dNMeChg]-[Aze]-Arg-aldehyde) 457

Do the same for N=C(N)NCCC[C@@H](C=O)NC(=O)[C@@H]1CCCN1C(=O)[C@H](O)C1CCCCCC1 [Compound C1, reference compound] please 200

CCOC(=O)N[C@H](CC1CCCCCC1)C(=O)N1CCC[C@H]1C(=O)N[C@H](C=O)CCCNC(=N)N ? 118
